biological target: PRKCG (human) (UniProt P05129)
reported.property: pKi
Answers are plain numbers, as −log10 of the molar value.

Problem: Which measured pKi belongs to O=C1c2ccccc2-c2n[nH]c3cccc1c23 , tested on PRKCG (human) (UniProt P05129)?
Result: 6.50

----------
target: STK17A (human) (UniProt Q9UEE5)
Sequence (Q9UEE5 whole entry, looked up): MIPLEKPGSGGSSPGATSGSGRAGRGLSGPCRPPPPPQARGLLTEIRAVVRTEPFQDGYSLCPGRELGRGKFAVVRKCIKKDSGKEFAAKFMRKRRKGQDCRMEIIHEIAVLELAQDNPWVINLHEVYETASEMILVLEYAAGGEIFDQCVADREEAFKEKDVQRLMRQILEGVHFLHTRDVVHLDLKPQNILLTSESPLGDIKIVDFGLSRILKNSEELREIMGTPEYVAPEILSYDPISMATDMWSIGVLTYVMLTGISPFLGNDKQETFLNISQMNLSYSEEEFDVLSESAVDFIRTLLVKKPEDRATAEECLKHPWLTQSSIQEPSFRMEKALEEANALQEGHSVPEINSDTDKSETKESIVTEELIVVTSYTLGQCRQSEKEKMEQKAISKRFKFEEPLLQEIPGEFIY
reported.property: pKi
Numbers only, as −log10 of the molar value.

Problem: Which measured pKi belongs to O=C1c2ccccc2-c2n[nH]c3cccc1c23 , tested on STK17A (human) (UniProt Q9UEE5)?
Result: 7.40

----------
Please go through the items and note down their Ki.
target: SGK1 (human)

Record excerpt, results attached:
# molecule, Ki
rows = [
    ("COc1nccc(-c2c(-c3ccc(F)cc3)ncn2C2CCNCC2)n1", "> 10 µM"),
    ("Cc1ccc(NC(=O)Nc2ccc(-c3coc4ncnc(N)c34)cc2)cc1", "> 10 µM"),
    ("C[C@H](Nc1c(Nc2ccncc2)c(=O)c1=O)C1CCCCC1", "> 10 µM"),
    ("CC(C)(C)n1nc(-c2ccc(Cl)cc2)c2c(N)ncnc21", "> 6.31 µM"),
]

Hi! Can you tell me Ki for each of these molecules?
1. C[C@@H](Nc1nccc(-c2c(-c3ccc(F)cc3)nc3occn23)n1)c1ccccc1
2. CC(=O)NCC(=O)N1C2CCC1c1cc(Nc3ncc(C(F)(F)F)c(NC4CCC4)n3)ccc12 (stereo not given)
3. N[C@H](COc1cncc(-c2ccc(F)cc2)c1)Cc1c[nH]c2ccccc12
4. Oc1ccc(-c2nc(-c3ccc(F)cc3)c(-c3ccncc3)[nH]2)cc1
5. O=C1Cc2c([nH]c3ccc([N+](=O)[O-])cc23)-c2ccccc2N1

Result:
> 10 µM
0.398 µM
> 10 µM
> 6.31 µM
> 10 µM

Problem: Given the molecule CNC(=O)c1cnc(N)c2c(-c3ccc(NC(=O)Nc4cccc(Cl)c4)cc3)csc12 , what is its reported Ki?
Result: 3.16 µM
